Cited source: patent US20190374572A1

Tested on: E. coli
Experiment: CFU-based bacterial assay
Assay type: cell-based
Experimental: Each sample set was evaluated using at least one of the following assays: (1) a CFU-based bacterial assay; […] As explained above, following sample incubation the samples were evaluated for the level of bacterial growth using a CFU-based bacterial assay and/or a UV-visible bacterial assay. […]

# compound, target system, 24 Hour log10 CFU/ml (log10 CFU/ml)
data = [
    ("O.O.O.O.O.O.O.O=S(=O)([O-])[O-].[Fe+2] [Example 21, iron (II) sulfate heptahydrate]", "E. coli", 0),
    ("O.O.O.O.O.O.O.O=S(=O)([O-])[O-].[Fe+2] [Example 20, iron (II) sulfate heptahydrate]", "E. coli", 8.8),
    ("O.O.O.O.O.O=S(=O)([O-])[O-].[Cu+2] [Example 22, copper (II) sulfate pentahydrate]", "E. coli", 7.8),
    ("O.O.O.O.O.O=S(=O)([O-])[O-].[Cu+2] [Example 23, copper (II) sulfate pentahydrate]", "E. coli", 2.4),
    ("O.O.O.O.O.O=S(=O)([O-])[O-].[Cu+2] [Example 24, copper (II) sulfate pentahydrate]", "E. coli", 0),
]
